Tested on: Wild type
Test: S. aureus survival, RN4220 and DeltatarO strains – OD600, teichoic acid synthesis inhibitors, primary screen (AID 463173)
Conditions: S. aureus RN4220 wild type/DeltatarO growth, OD600, 18 h, active compounds read low, screened at 18.75 µg/mL (by protocol)
About 1,700 (3.3%) of roughly 52,000 compounds were called active. Many of the other results were omitted from the sample, so actives are more common in it than they were.
REPORTED METRIC: survival (%)
Give the number; % is assumed, so skip it.

Param readout= survival; system= Wild type; entry= `CCN(C(=O)Cn1nc(Cc2ccncc2)c2ccccc2c1=O)c1ccc(OC)cc1` ; returns value.
74

Request: `COc1ccccc1C(=O)NC(=O)Nc1ccc(-c2cc(C(F)(F)F)nn2-c2ccccc2)cc1`
5

Do the same for CC1CN(C(=O)C(C)Sc2nc(-c3ccccc3)cc(C(F)(F)F)n2)CC(C)O1 (configuration not stated) please
101

Lookup CC1CCN(C(=O)C(C)Sc2nc(-c3ccccc3)cc(C(F)(F)F)n2)CC1 (configuration not stated)
-7

Proceed to `CCCn1c2ccccc2c2cnn(CC(=O)NCc3ccccc3Cl)c(=O)c21`
120

Likewise for `CCc1ccc2nc(N(CCN(CC)CC)C(=O)c3ccco3)sc2c1` ?
53

Subsequent entry: `COc1ccc(-c2nc(SCC(=O)N3CCN(c4ccc(F)cc4)CC3)n[nH]2)cc1`
85

And the next one, `Cc1nc2nc(NCc3cccc(Br)c3)[nH]n2c(=O)c1Cc1ccccc1` ?
68

Next up: `COc1ccccc1C(=O)Nc1ccc(-c2cc(C(F)(F)F)nn2-c2ccccc2)cc1`
39

Try the compound `Cc1cccc(Cn2cccc2CNS(=O)(=O)c2ccc(Br)cc2)c1`
64

// repeat for `Cc1nc2c(-c3ccccc3)c(C)[nH]n2c(=O)c1Cc1ccc(Br)cc1` and report
-5

Item: `COc1cccc(CNC(=O)c2ccc(NC(=O)N3CCCCc4ccccc43)cc2)c1OC`
73

Entry to check: `CCCCn1cnc2cc(NCc3ccc(OCC)cc3)ccc21`
4

Now consider `CC(C)(C)n1cnc2cc(NS(=O)(=O)c3ccccc3)ccc21` .
112

Then what about the compound `CCCn1c2ccccc2c2cnn(CC(=O)NCC3CCN(Cc4ccccc4C)CC3)c(=O)c21` ?
14

Input `CCCn1c2ccccc2c2cnn(CC(=O)NCC3CCN(Cc4ccc(F)cc4)CC3)c(=O)c21`
74

Quick one: `Cc1ncc(CO)c2c1Oc1nc(-c3ccc(Cl)cc3)nc(SCC(=O)N3CCCCC3)c1C2`
79

# repeat for `CCN(CC)CCN(C(=O)c1ccc(C(=O)OC)cc1)c1nc2ccc(Cl)cc2s1`
-6

For `COc1ccccc1C(=O)NC(=O)Nc1ccc(-n2nc(C(F)(F)F)cc2C(F)(F)F)cc1` then?
101

Same lookup for `CC1CCN(C(=O)CSc2nc(-c3ccc(F)cc3)cc(C(F)(F)F)n2)CC1` , please.
11

Another compound: `CCCn1cnc2cc(NC(=O)c3cc(OC)c(OC)c(OC)c3)ccc21`
76

Param item: `COc1cccc(NC(=O)Cn2c(=O)n(Cc3ccc4c(c3)OCO4)c(=O)c3oc4ccccc4c32)c1`
80

# repeat for `O=C(O)c1cnc2ccccn2c1=O`
109

Then what about the compound `CN1CCc2c(sc(NC(=O)CSc3ccccc3)c2-c2nc3ccccc3s2)C1` ?
80

For CC(Sc1nc(-c2ccccc2)cc(C(F)(F)F)n1)C(=O)N1CCCC1 (configuration not stated) then?
105

Also `CC(=O)N1CCc2c(sc(NC(=O)CSc3ccccc3)c2-c2nc3ccccc3s2)C1` , if possible.
120

Another compound to check: `COc1cc(CNc2ccc3c(c2)ncn3C(C)C)cc(OC)c1OC`
66
